Measured normalized growth, listed per entry for reference.
Assay: chemical genetic growth profiling, strain panel (AID 1159580);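 also: tested at 20 µM; growth read once vehicle control cultures reached saturation at 30 °C; 1 = growth at the plate median or of vehicle wells; lower values mean less growth of the strain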
Conditions: S. cerevisiae deletion strains, growth OD, locus YOR144C, strain elg1, stronger effect = lower value
About 2,000 (36%) of roughly 5,500 compounds were called active. About 18% were inconclusive and are not listed. Some of the results follow.
Outcome measure: normalized growth

>>> measured_result("CCCC(=O)Nc1ccc(OCC(O)CNC(C)C)c(C(C)=O)c1 (centres undefined)")
"1.02 (inactive)"
>>> measured_result("CC(NC(C)(C)C)C(=O)c1cccc(Cl)c1 (centres undefined)")
"1.03 (inactive)"
>>> measured_result("COc1cc(Cc2cnc(N)nc2N)cc(OC)c1OC")
"0.989 (inactive)"
>>> measured_result("CNC(=O)Oc1cccc2c1OC(C)(C)C2")
"1 (inactive)"
>>> measured_result("CNC(=O)Oc1ccccc1OC(C)C")
"0.995 (inactive)"
>>> measured_result("COc1cc2c(cc1OC)C(C)NCC2 (centres undefined)")
"0.985 (inactive)"
>>> measured_result("CC1=C(C(=O)O)N2C(=O)[C@@H](NC(=O)[C@@H](N)c3ccc(O)cc3)[C@H]2SC1")
"0.981 (inactive)"
>>> measured_result("O[C@H]1[C@H](O)[C@@H](O)C2OC[C@H]1O2")
"0.983 (inactive)"
>>> measured_result("O=C(Nc1ccc([N+](=O)[O-])cc1Cl)c1cc(Cl)ccc1O")
"1.19 [resistant] (active)"
